Hello, the source for this data is ChEMBL document CHEMBL1201862, in case you need it.

EXPERIMENTAL_TARGET: Short transient receptor potential channel 4 (Mus musculus, UniProt Q9QUQ5)
Sequence (Q9QUQ5 whole entry): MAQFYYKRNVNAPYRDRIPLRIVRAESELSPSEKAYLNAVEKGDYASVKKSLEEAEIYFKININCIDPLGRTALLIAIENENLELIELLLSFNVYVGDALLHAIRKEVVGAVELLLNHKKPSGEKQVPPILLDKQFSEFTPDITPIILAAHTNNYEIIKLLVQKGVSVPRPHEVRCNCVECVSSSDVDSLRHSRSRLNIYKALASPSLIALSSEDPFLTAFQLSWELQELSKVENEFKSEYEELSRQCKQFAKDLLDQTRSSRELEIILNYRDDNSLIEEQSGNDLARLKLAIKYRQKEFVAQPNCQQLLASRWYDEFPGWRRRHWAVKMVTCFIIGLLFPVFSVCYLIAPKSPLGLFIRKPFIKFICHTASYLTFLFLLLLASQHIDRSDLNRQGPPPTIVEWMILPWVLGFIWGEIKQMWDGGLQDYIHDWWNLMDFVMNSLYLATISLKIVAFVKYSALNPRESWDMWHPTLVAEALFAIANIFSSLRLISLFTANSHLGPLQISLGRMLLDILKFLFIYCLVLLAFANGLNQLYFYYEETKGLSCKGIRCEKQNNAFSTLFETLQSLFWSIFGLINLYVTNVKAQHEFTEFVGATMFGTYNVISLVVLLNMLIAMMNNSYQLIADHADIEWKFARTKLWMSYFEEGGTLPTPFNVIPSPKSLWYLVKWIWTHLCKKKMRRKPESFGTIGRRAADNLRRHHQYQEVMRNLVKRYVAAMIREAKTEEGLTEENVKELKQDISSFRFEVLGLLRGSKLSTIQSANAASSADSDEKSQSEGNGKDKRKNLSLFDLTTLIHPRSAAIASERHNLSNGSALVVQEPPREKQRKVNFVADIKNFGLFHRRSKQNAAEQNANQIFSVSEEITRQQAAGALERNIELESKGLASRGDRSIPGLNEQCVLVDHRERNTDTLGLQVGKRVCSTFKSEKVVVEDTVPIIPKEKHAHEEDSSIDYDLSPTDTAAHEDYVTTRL
PROTOCOL_SUMMARY: block of DAMGO-driven TRPC4 calcium entry – cell-based, HEK293 TRPC4/mu-opioid, Fluo-4 calcium, dose response (AID 434942);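 further: potency of inhibitors blocking the TRPC4 calcium response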
Format: functional
Calls of active or inactive are those of the source. How the calls were made is not given here.
Measured EC50 accompanies every entry in the list below.

Worked set:
COMPOUND	VALUE_TYPE	RESULT
COc1ccc(CCN(C)CCN2C(=O)c3ccccc3C2=O)cc1OC	EC50	1.88 µM (active)
O=C(C1CCN(CC2CC=CCC2)CC1)N(CCc1ccccc1)Cc1ccccc1 (stereo not given)	EC50	2.66 µM (active)
N=C(NC1CCCCC1)c1ccc(Cl)cc1	EC50	1.68 µM (active)

Please look up its EC50: COCCn1c(SCC(=O)c2ccccc2)nc2ccccc2c1=O
0.376 µM (active)

Same thing, different compound: CCCCNc1nc2ccccc2[nH]1
2.99 µM (active)
